Structures can show the parent of a compound that is named as a salt.
# key: entry, value: melting point
property.label: melting point

[[record]]
compound = "CC[C@H](NC(=O)c1c(CN2CCC(N3CCCCC3)CC2)c(-c2ccccc2)nc2cc(OCC(N)=O)ccc12)c1ccccc1 (as salt: hydrochloride) [Example 20, Dihydrochloride]"
property_label = "melting point"
observed_value = "218 to 220 °C"

[[record]]
compound = "C[C@H](NC(=O)c1c(CN2CCC(N3CCCC3=O)CC2)c(-c2ccccc2)nc2ccccc12)c1ccccc1 [Example 12]"
property_label = "melting point"
observed_value = "120 to 125 °C"

[[record]]
compound = "C[C@H](NC(=O)c1c(CN2CCC(N3CCCCC3)CC2)c(-c2ccccc2)nc2c(F)cccc12)C1CCCCC1 [Example 26]"
property_label = "melting point"
observed_value = "113 °C"

[[record]]
compound = "C[C@H](NC(=O)c1c(CN2CCC(N3CCCCC3)CC2)c(-c2ccccc2)nc2cc(F)ccc12)C1CCCCC1 [Example 25]"
property_label = "melting point"
observed_value = "161 to 163 °C"

[[record]]
compound = "CCOC(=O)COc1ccc2c(C(=O)N[C@@H](CC)c3ccccc3)c(CN3CCC(N4CCCCC4)CC3)c(-c3ccccc3)nc2c1 [Example 16]"
property_label = "melting point"
observed_value = "101 to 104 °C"

[[record]]
compound = "C[C@H](NC(=O)c1c(CN2CCC(N3CCCCC3=O)CC2)c(-c2ccccc2)nc2ccccc12)c1ccccc1 [Example 11]"
property_label = "melting point"
observed_value = "124 to 125 °C"

[[record]]
compound = "C[C@H](NC(=O)c1c(CN2CCC(N3CCCCC3)CC2)c(-c2ccccc2)nc2cc(O)ccc12)c1ccccc1 [Example 18]"
property_label = "melting point"
observed_value = "99.6 to 99.7 °C"

